STUDY TARGET: ADORA2A (Homo sapiens)
Construct: host or cells: HEK-293
Sequence (P29274 whole entry): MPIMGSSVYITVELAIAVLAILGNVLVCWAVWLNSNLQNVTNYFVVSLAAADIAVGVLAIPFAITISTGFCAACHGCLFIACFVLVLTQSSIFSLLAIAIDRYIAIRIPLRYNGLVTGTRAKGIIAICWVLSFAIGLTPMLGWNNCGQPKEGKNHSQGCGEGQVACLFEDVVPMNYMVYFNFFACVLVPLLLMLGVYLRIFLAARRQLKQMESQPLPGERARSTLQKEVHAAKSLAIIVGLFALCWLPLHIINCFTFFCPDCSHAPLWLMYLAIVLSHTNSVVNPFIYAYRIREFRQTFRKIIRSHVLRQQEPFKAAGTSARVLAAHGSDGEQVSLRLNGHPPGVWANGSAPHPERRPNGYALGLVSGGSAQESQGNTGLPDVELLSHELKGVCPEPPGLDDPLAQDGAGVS
ASSAY PROCEDURE: ADORA2A in vitro receptor assay, [3H]CGS-21680 radioligand binding
DETAILS: human recombinant HEK-293 cells, 0.05 μM [3H] CGS-21680
OUTCOME MEASURE: inhibition at 10 µM (%)

(a) C=C[C@@]1(C)CC(=O)[C@H]2[C@](O)(C1=O)[C@H](OC(C)=O)C[C@H]1C(C)(C)[C@H](OC(=O)c3ccccc3)[C@H](OC(C)=O)[C@H](OC(=O)c3ccccc3)[C@@]12C [[6], Orthosiphonone A]
(b) C=CC1C(OC(=O)c2ccccc2)C2C(O)(C(=O)C1(C)O)C(OC(C)=O)CC1C(C)(C)C(O)C(OC(C)=O)C(OC(=O)c3ccccc3)C12C (centres unmarked) [[7], Neoorthosiphol A]
# argmax over inhibition at 10 µM for candidates a and b Kindly give the label for the entry you pick.
b
(b: 64%, a: 42%)
